Reported protein stability index values for a set of variants
B1: PLAGL1 (parent)
chain: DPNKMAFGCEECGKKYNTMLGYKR

# Variants of: B1
# experiment description: protein stability index of a GFP-peptide fusion (GPS, HEK-293T) (PSI 1-6); higher = more stable;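 also: lentivirally expressed fusions sorted by FACS into six bins by GFP to DsRed ratio, PSI derived from sequencing read proportions per bin multiplied by bin number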
# setup conditions: c terminus: a fixed tail appended
Could you keep your reply to the number by itself?

Here is how some variants turned out for protein stability index.
| mutation descriptor | measured result |
| --- | --- |
| P2F | 2.73 |
| M5Q | 2.26 |
| F7E | 3.21 |

query: Given the entry `Y16G` , report its measured protein stability index.
result: 2.17

query: Given the entry `K4M` , report its measured protein stability index.
result: 2.6

query: Given the entry `A6V` , report its measured protein stability index.
result: 2.04

query: Given the entry `R24H` , report its measured protein stability index.
result: 3.66

query: Given the entry `Y16W` , report its measured protein stability index.
result: 2.72

query: Given the entry `G8E` , report its measured protein stability index.
result: 2.74

query: Given the entry `E11W` , report its measured protein stability index.
result: 1.37

query: Given the entry `T18V` , report its measured protein stability index.
result: 1.42

query: Given the entry `K15I` , report its measured protein stability index.
result: 1.58
